- ASSAYED SYSTEM: GABAA2 receptors (α2, β3, γ2 receptor subunits transfected into Sf9 cells) (Homo sapiens, UniProt P18507+P47869)
- Sequence (P47869 29-451): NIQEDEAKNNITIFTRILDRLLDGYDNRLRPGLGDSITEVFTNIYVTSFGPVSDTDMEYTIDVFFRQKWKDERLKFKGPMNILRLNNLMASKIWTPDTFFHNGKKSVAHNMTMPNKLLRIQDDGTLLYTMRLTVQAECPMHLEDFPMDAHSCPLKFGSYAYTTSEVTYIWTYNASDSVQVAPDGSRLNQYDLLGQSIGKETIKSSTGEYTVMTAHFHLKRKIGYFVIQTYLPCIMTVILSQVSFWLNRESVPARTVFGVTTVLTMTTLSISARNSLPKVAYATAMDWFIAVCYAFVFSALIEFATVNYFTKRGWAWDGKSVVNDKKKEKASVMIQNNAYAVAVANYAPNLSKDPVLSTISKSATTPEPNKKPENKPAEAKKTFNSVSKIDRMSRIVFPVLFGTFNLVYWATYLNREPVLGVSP
- Sequence (P28472 26-473 partner): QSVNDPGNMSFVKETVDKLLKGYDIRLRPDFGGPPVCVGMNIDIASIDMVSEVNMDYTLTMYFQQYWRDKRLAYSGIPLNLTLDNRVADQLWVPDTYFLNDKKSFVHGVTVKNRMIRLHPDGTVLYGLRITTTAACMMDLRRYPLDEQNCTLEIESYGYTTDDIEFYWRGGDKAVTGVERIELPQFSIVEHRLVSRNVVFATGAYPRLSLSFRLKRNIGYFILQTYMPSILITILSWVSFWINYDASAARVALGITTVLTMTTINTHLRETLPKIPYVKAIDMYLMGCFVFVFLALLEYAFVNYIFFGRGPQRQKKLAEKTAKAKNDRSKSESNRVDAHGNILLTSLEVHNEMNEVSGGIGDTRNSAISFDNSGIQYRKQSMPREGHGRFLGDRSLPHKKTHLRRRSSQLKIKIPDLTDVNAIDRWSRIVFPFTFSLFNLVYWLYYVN
- Sequence (P18507 40-475): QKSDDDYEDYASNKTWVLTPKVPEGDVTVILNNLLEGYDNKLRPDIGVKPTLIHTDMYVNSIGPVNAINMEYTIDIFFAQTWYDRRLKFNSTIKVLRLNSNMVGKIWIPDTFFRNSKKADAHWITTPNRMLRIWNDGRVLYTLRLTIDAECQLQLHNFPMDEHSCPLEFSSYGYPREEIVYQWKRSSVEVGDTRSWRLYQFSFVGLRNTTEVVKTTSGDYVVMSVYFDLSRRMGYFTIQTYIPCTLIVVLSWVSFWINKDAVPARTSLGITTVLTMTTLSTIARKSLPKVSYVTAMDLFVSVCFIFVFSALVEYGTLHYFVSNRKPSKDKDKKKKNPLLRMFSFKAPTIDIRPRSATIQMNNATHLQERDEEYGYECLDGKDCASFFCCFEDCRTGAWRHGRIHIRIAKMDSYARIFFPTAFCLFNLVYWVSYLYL
- ASSAY PROCEDURE: GABAA2 Binding Method ([3H]-Flunitrazepam displacement)
- EXPERIMENTAL SETUP: [3H]-Flunitrazepam ~2 nM, α2β3γ2 Sf9 membranes, 1 hr at 4° C.
I'd be grateful if you could share measured Ki for these entries.
Answers are plain numbers, in nM.

Solved cases (2 shown):
- INPUT SMILES: "CCCN1Cc2nc3c(-c4cnc(OC)cc4C)cccc3c(N)c2C1=O"
  OBSERVATION TYPE: "Ki"
  OBSERVED: 50.6
- INPUT SMILES: "CCCN1Cc2nc3c(-c4ccc5[nH]ccc5c4)cccc3c(N)c2C1=O"
  OBSERVATION TYPE: "Ki"
  OBSERVED: 26.8

Incoming: So what's the measured Ki for this one? CCN1Cc2nc3c(-c4cnccc4C)c(F)ccc3c(N)c2C1=O
Outgoing: 2.01
